- experiment.summary: doxorubicin toxicity protection in MRP-1 cells – H69AR cells, CellTiter-Glo, duplicate, MRP-1 activator project, pilot screen (AID 807);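 also: compound pretreatment 18-22 h then 72 h combined with doxorubicin; 0% = doxorubicin alone and 100% = vehicle without doxorubicin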
- condition.context: H69AR viability with doxorubicin, CellTiter-Glo luminescence; at 10 µM; stronger effect = higher value
# key: entry, value: viability increase

| compound | viability increase (%) |
| --- | --- |
| CCOC(=O)C1=C(C)N(C)C(=O)NC1c1ccccc1OC (stereo unspecified) | 0.16 |
| CCOC(=O)N1CCN(C(=O)CSc2nnc(-c3cccs3)o2)CC1 | 0.87 |
| O=C(c1ccc(CS(=O)(=O)c2c(Cl)cccc2Cl)o1)N1CCN(c2ccccn2)CC1 | -3.07 |
| CCCCCCSc1cc(C)nc2ncnn12 | -0.06 |
| C=CCOc1ccc(/C=C/C(C)=N\O)cc1 | -3.27 |
| Cn1c(Cn2c(=O)sc3ccccc32)nnc1SCC(=O)Nc1ccccc1 | -1.41 |
| Cn1c(C(=O)N2CCN(c3ccc(Cl)cc3)CC2)cc2c(=O)n(C)c3ccccc3c21 | -0.43 |
| COC(=O)C1C2C=CC3(CN(c4cccc(Cl)c4)C(=O)C13)O2 (stereo unspecified) | -1.38 |
| CCCCc1cc2c(c(NC(C)=O)n1)c(=O)oc1ccccc12 | -4.33 |
| CCS(=O)(=O)c1nc2ccccc2n1Cc1ccccc1Cl | -4.6 |
| CCOc1ccc(-n2c(SCC(=O)NCc3ccco3)nc3c(c2=O)SCC3)cc1 | -3.31 |

* * *

- experiment.summary: HUVEC growth inhibition – cell-based, human, primary screen (AID 575);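 also: 100% = median of untreated cell wells with 0.1% DMSO on each plate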
- condition.context: HUVEC proliferation, CellTiter-Glo luminescence, 72 h; at 10 µM; stronger effect = lower value
# key: entry, value: viability

| compound | viability / % |
| --- | --- |
| CCN(CC)CCN1C(=O)c2oc3ccc(F)cc3c(=O)c2C1c1ccncc1 (stereo not given) | 95.6 |
| CCCCNC(=O)Nc1ccnn1C1CCCCC1 | 96.5 |
| CCOC(=O)C(C)Sc1nnc(Cc2cc(=O)[nH]c(=O)[nH]2)n1-c1ccc(Cl)cc1 (stereo not given) | 102 |
| Cc1cccc(C2CC(c3ccccc3)Nc3nc(N)nn32)c1 (stereo not given) | 92.7 |
| CCOC(=O)N1CCC(N2C(=O)c3ccccc3C2Nc2cc(Cl)c(OC)cc2OC)CC1 (stereo not given) | 91.6 |
| Cc1ccc2oc(=O)c3cnn(CC(=O)N4CCCc5ccccc54)c3c2c1 | 89.8 |
| COc1c(C(=O)Nc2c(C)n(C)n(-c3ccccc3)c2=O)ccc2ccccc12 | 99.3 |
| COc1cc(OC)c2c(c1)OC(c1ccc(OC)c(OC)c1)C(O)C2=O (stereo not given) | 112 |
| Cc1cc(NC(=O)CSc2nc3c(c(=O)n2Cc2ccccc2)SC(C)C3)no1 (stereo not given) | 74.5 |
| Cc1ccc(N2CCN(S(=O)(=O)N(C)C)CC2)c(C)c1 | 90.6 |

* * *

# key: entry, value: inhibition
- experiment.summary: growth suppression of yeast trafficking mutant, preliminary HTS, modulators of trafficking downstream of Golgi apparatus project, 1536-format plate, OD 615 nm (AID 637)
- condition.context: yeast transport mutant growth, absorbance 615 nm, 18 h; stronger effect = higher value

| compound | inhibition, % |
| --- | --- |
| COc1ccc(CCNc2oc(COc3ccccc3Cl)nc2C#N)cc1OC | -1.83 |
| Cc1nnc(SCC(=O)Nc2ccc3c4c(cccc24)CC3)n1C | -3.83 |
| C=CCSc1nnc(-c2cccnc2)o1 | 9 |
| COc1ccc(OCc2nc(C#N)c(N3CCN(c4ccc(OC)cc4)CC3)o2)cc1 | -8.17 |
| CCOC(=O)c1ccccc1NC(=O)c1cccnc1 | -4.59 |
| Nc1nc2n(n1)C(c1cccc(Br)c1)CC(c1ccc(F)cc1)N2 (stereo unspecified) | -6.5 |
| O=S(=O)(c1ccccc1)N1CCN(S(=O)(=O)c2ccccc2)C1 | -4.5 |
| Cc1ccc(C)n1-c1ccc(N2CCOCC2)cc1 | -3.33 |
| CC(Oc1ccc2oc(-c3ccccc3)c(C(=O)O)c2c1)C(=O)O (stereo unspecified) | -6 |
| O=C(OCC(=O)c1ccc[nH]1)c1ccc(S(=O)(=O)N2CCCCC2)cc1 | -6.17 |
| COc1cccc(/C=N/n2cnnc2)c1OCc1ccccc1 | -0.16 |

* * *

- experiment.summary: growth suppression of yeast trafficking mutant, preliminary HTS, modulators of trafficking downstream of Golgi apparatus project, 1536-format plate, OD 615 nm (AID 637)
- condition.context: yeast transport mutant growth, absorbance 615 nm, 18 h; stronger effect = higher value

| compound | inhibition / % |
| --- | --- |
| COc1ccc(N2CCN(c3oc(COc4ccccc4Cl)nc3C#N)CC2)cc1 | -4.75 |
| CCn1cc(C(=O)NCC2COc3ccccc3O2)c2cc(OC)c(OC)cc2c1=O (stereo unspecified) | 0.16 |
| CC1CCN(C(=O)Cn2cc3c(n2)CCCC3)CC1 | -4.5 |
| CC1CCC(NC(=O)Cn2ncc3ccccc32)CC1 (stereo unspecified) | -8 |
| CCOc1ccc(N(CC(=O)OC)S(=O)(=O)c2ccc(OC)c(OC)c2)cc1 | -4.83 |
| COc1ccc(S(=O)(=O)N2CCN(c3ccc(C)cc3C)CC2)cc1OC | 2.5 |
| CC(=O)Nc1ccc(S(=O)(=O)N2CCN(C(=O)CCC3CCCC3)CC2)cc1 | -4.35 |
| COc1ccccc1CNC(=O)C1CCCN(S(=O)(=O)c2cccc3cccnc23)C1 (stereo unspecified) | -2.17 |
| CN1C(=O)C(O)(CC(=O)c2ccc(F)cc2)c2cc(Br)ccc21 (stereo unspecified) | 2 |
| Clc1cccc(-c2nnc(-c3ccccc3)o2)c1 | 0.82 |
| CCCNC(=O)CS(=O)(=O)Cc1nc(-c2cccc(OC)c2)oc1C | 8.2 |

* * *

- experiment.summary: reduced viability of SK-BR-3 breast cancer cells – cell-based, 24 h, human, pilot screen (AID 572);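 also: compound exposure lasted between 18 and 24 h rather than exactly 24 h; 100% = carrier-treated control wells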
- condition.context: SK-BR-3 viability, CellTiter-Glo luminescence, at 10 µM, stronger effect = lower value
Note to self: use Yes only for viability readings below 90%; a reading exactly at 90% still gets No.

| compound | group.label |
| --- | --- |
| CCOC(=O)c1c(C)n(OCc2ccccc2)c2ccc3c(no[n+]3[O-])c12 | Yes |
| COc1cc(C2N3CC4(C)CN2CC(C)(C3)C4)ccc1O (configuration not stated) | No |
| Cc1occc1C(=O)N1CCN(Cc2ccccc2)CC1 | Yes |
| N#Cc1nc(COc2ccccc2Cl)oc1N1CCCCCC1 | No |
| COc1ccc(NC(=O)C2CCCN(S(=O)(=O)c3cccc4cccnc34)C2)cc1OC (configuration not stated) | Yes |
| COc1ccc(NC(=O)CC2CCCCC2)cc1OC | No |
| CCCCOc1ccc(-c2ncc(Cl)cn2)cc1 | No |
| Cc1ccccc1-n1c(Cn2c(=O)sc3ccccc32)nnc1SCC(=O)N1CCCC1 | No |
| CCn1cc(C(=O)NCCC2=CCCCC2)c(=O)c2cc(S(=O)(=O)N(C)C)ccc21 | Yes |
| Cc1cnc(NC(=O)CSc2nnc(COc3c(C)cccc3C)o2)s1 | Yes |
| COc1ccccc1-c1cc2nc(C)c(CCC(=O)NCc3ccco3)c(C)n2n1 | Yes |
| CCCNC(=O)C1CC(=O)N(c2ccc(OCC(=O)Nc3cc(C)cc(C)c3)cc2)C1 (configuration not stated) | No |
| CC(=NCC1CCNCC1)C1=C(O)CC(C)(C)CC1=O | Yes |
| CCn1cc(C(=O)N2CCOCC2)c(=O)c2cc(S(=O)(=O)N(C)C3CCCCC3)ccc21 | Yes |
| CCC(C)NC(=O)C1c2cc(OC)c(OC)cc2C(=O)N(C)C1c1ccc(OC)cc1 (configuration not stated) | No |
| CC(=O)Nc1ccc(S(=O)(=O)Nc2nc3c(s2)CCCC3)cc1 | No |

* * *

- experiment.summary: MRP1 drug-resistance reversers in H69AR cells – cell-based, doxorubicin co-treatment, pilot screen (AID 601)
- condition.context: H69AR cells + 2 uM doxorubicin, CellTiter-Glo, 72 h; at 10 µM; stronger effect = higher value

| molecule | differential viability (reversal) / % |
| --- | --- |
| Cn1c(SCC(=O)c2cc3ccccc3o2)nnc1-c1ccccc1 | 3.21 |
| Cc1ccccc1-n1c(Cn2c(=O)sc3ccccc32)nnc1SCC(N)=O | 6.29 |
| CC(C)C(NC(=O)c1ccc(S(=O)(=O)N2CCOCC2)cc1)c1nc2ccccc2[nH]1 (stereo not given) | -2.94 |
| CCSc1nc2c(c(=O)[nH]1)C(c1cccnc1)C(C(=O)OC(C)C)=C(C)N2 (stereo not given) | 15.6 |
| CC(C)(C)SCCNC(=O)CN1C(=O)c2ccccc2S1(=O)=O | 8.94 |
| CCOC(=O)CN1CC23C=CC(O2)C(C(=O)Nc2ccc(C(C)=O)cc2)C3C1=O (stereo not given) | 2.38 |
| COc1cccc2cc(C(=O)Nc3cccnc3N3CCOCC3)c(=O)oc12 | 10.1 |
| c1ccc(-c2nnc(CSc3nncs3)o2)cc1 | 13.6 |
| COc1ccccc1N1CCN(c2cc(=O)n(Cc3ccc(F)cc3)c(=O)[nH]2)CC1 | -38 |
| CC(=NCC1CCNCC1)C1=C(O)CC(C)(C)CC1=O | 13.4 |
